Target or system UniProt:P00734; metric log10(Ki); compiled from varied reports.
outcome_measure: log10(Ki) (log10 of the value in nM)

| molecule | assayed_target | log10(Ki) |
| --- | --- | --- |
| Cc1cc(NS(=O)(=O)c2ccccc2)cc(OCCCCCN)c1 | UniProt:P00734 | 4.00 |
| N=C(N)c1ccc(CNC(=O)[C@@H]2Cc3cccc(c3)CNC(=O)Cc3cccc(c3)CC(=O)NCc3cccc(c3)C[C@@H](NS(=O)(=O)Cc3ccccc3)C(=O)N2)cc1 | UniProt:P00734 | 1.43 |
| N=C(N)c1cccc(Oc2ccc(NC(=O)Nc3ccccc3)c(Oc3cccc(C(=N)N)c3)n2)c1 | UniProt:P00734 | 3.53 |
| N=C(N)N1CCCC(C[C@H](NC(=O)CN2C(=O)CN(Cc3ccccc3)C(=O)[C@@H]2Cc2ccc3ccccc3c2)C(=O)c2nccs2)C1 (stereo partly drawn) | UniProt:P00734 | 0.54 |
| CCCN(CC1CCCC1)C(=O)c1cc(Cl)cc(OCCCONC(=N)N)c1 | UniProt:P00734 | 1.58 |
| COC(=O)C(Cc1ccccc1)C(=O)Nc1ccc2c(c1)OC(Cc1ccc(C(=N)N)cc1)C(=O)N2C (stereo not drawn) | UniProt:P00734 | 3.44 |
| CNCc1ccccc1-c1ccc(N2CCc3c(C(F)(F)F)nn(-c4ccc5onc(N)c5c4)c3C2=O)cc1 | UniProt:P00734 | 2.18 |

* * *

Target or system UniProt:P00734; metric log10(Ki); compiled from varied reports.
outcome_measure: log10(Ki) (log10 of the value in µM)

| smiles_repr | log10(Ki) |
| --- | --- |
| Cc1nc(N)ccc1CNC(=O)Cc1c(Cl)ccc(NCC(F)(F)c2ccccc2)c1F | -1.99 |
| N=C(N)N1CCC[C@@H](CNC(=O)C[C@H](NS(=O)(=O)c2ccc3ccccc3c2)C(=O)N(CC(=O)O)C2CCCCC2)C1 | -3.15 |
| NCCOCCOCCN1CCN(C(=O)[C@H](CCCN=C(N)N)NS(=O)(=O)c2cccc(C(F)(F)F)c2)CC1 | 1.06 |
| CC(C)c1cc(S(=O)(=O)N[C@H](CO)C(=O)NCC(=O)NCc2ccc(C(=N)N)cc2)cc(C(C)C)c1C(C)C | 1.18 |
| Cc1cnc(NC[C@H](C)c2ccccc2)c(=O)n1CC(=O)NCc1ccc2[nH]ncc2c1 | -2.24 |
| N=C(N)c1cccc(C[C@H](NS(=O)(=O)c2cccc(NC(=O)C3CNC3)c2)C(=O)N2CCC(CCN)CC2)c1 | 0.71 |
| CCCC(=O)N1CCC[C@H]1C(=O)NCc1cccc(Cl)c1 | 2.51 |

* * *

pKi: −log10 of the molar value.
Target or system Prothrombin (Homo sapiens, UniProt P00734); metric pKi; compiled from varied reports.

| smiles_repr | comparison_operator | pKi |
| --- | --- | --- |
| N=C(N)c1ccc(/C=C2\CCCC/C(=C\c3ccc(C(=N)N)cc3)C2=O)cc1 | = | 6.28 |
| N=C(N)c1cccc(CN2CC[C@H](NS(=O)(=O)c3ccc4cccnc4c3)C2=O)c1 | < | 5.40 |
| CC(C)C[C@H](NS(=O)(=O)c1cnccc1N[C@H](CO)Cc1ccccc1)C(=O)N1CCC(CCF)CC1 | = | 4.92 |
| COc1c(C(=O)Nc2ccc(C)cc2C(=O)Nc2ccc(Cl)cc2)sc2ccccc12 | < | 5.30 |
| CC(=N)N1CCC(c2ccc(NC(=O)CN(Cc3cccc(OCC(=O)O)c3)c3cccc(C(=N)N)c3)cc2)CC1 | = | 4.59 |
